B1: NR2F2 (parent)
chain: VAHVESLQEKSQCALEEYVRSQYP

Variants of: B1
Assay: protein stability index of a GFP-peptide fusion (GPS, HEK-293T) (PSI 1-6); higher = more stable;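 also: lentivirally expressed fusions sorted by FACS into six bins by GFP to DsRed ratio, PSI derived from sequencing read proportions per bin multiplied by bin number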
Conditions: c terminus: a fixed tail appended
// class assignment uses protein stability index with these ranges: class 0 (below 3), class 1 (3 to below 4), class 2 (4 or more)

Examples from the recorded data:
S11D class 2
Q12Y class 0

Lab log: S21E — assign protein stability index category
class 1

Lab log: Y18T — assign protein stability index category
class 2

Lab log: C13R — assign protein stability index category
class 2

Lab log: E9I — assign protein stability index category
class 0

Lab log: Q22P — assign protein stability index category
class 1

Lab log: Y18I — assign protein stability index category
class 1

Lab log: Y23W — assign protein stability index category
class 0

Lab log: Q22E — assign protein stability index category
class 2

Lab log: S11T — assign protein stability index category
class 1

Lab log: V4F — assign protein stability index category
class 0

Lab log: Q8I — assign protein stability index category
class 0

Lab log: L7F — assign protein stability index category
class 1

Lab log: L15K — assign protein stability index category
class 2

Lab log: A2E — assign protein stability index category
class 2

Lab log: R20A — assign protein stability index category
class 1

Lab log: Q8W — assign protein stability index category
class 0

Lab log: E16M — assign protein stability index category
class 0

Lab log: R20H — assign protein stability index category
class 1

Lab log: Q8P — assign protein stability index category
class 1
